Below, each of the compounds is paired with its reported fraction unbound value.
experiment: Plasma protein binding human; format: in vitro ADME

The cases that follow already have their fraction unbound on record.
1. CCOC(=O)c1cnc2ccc(OC)cc2c1NCc1ccccc1
< 0.01
2. COc1cc2cc(C(=O)Nc3ccccc3)c(N)nc2cc1OC
> 0.05
3. CCN1CCN(c2cc(C)c3cc(NC(=O)c4ccc(OC)c(OC)c4)ccc3n2)CC1
> 0.05
4. COc1ccc(C(=O)Nc2ccc3nc(N4CCCCC4)cc(C)c3c2)cc1OC
< 0.01

Given "CCN(CC)c1cc(C)c2cc(NC(=O)c3cccc(OC)c3)ccc2n1" , state its recorded fraction unbound.
< 0.01
